Values were extracted from ChEMBL document CHEMBL4680119.

- Assay comment: in vitro
- Experimental setup: human, WI38 cells and HepG2 cells
- Description: Selectivity index, ratio of IC50 for human WI38 cells to IC50 for human HepG2 cells
Labelling: selectivity ratio reported below 3 becomes label 1; at or above becomes label 0.

Before answering, review these 5 worked examples.
{"columns": ["Molecule", "Class"],
 "data": [
  ["O=C(Nc1ccc([N+](=O)[O-])cc1)C(c1ccccc1)N(C(=O)CCC(=O)N(c1ccccc1)C(C(=O)Nc1ccc([N+](=O)[O-])cc1)c1ccccc1)c1ccccc1 (configuration not stated)", "label 1"],
  ["O=C(Nc1ccc([N+](=O)[O-])cc1)C(c1ccccc1)N(C(=O)c1ccc(C(F)(F)F)cc1)c1ccccc1 (configuration not stated)", "label 0"],
  ["O=C(Nc1ccc([N+](=O)[O-])cc1)C(c1ccccc1)N(C(=O)c1ccccc1[N+](=O)[O-])c1ccccc1 (configuration not stated)", "label 0"],
  ["CC(=O)N(c1ccccc1)C(C(=O)Nc1ccc([N+](=O)[O-])cc1)c1ccccc1 (configuration not stated)", "label 1"],
  ["Cc1ccc(N(C(=O)c2ccc(Br)cc2)C(C(=O)Nc2ccc([N+](=O)[O-])cc2)c2ccccc2)cc1 (configuration not stated)", "label 1"]
]}

Moving on to another molecule below.
Prompt: is_below(selectivity ratio, 3) for CC(C)(C)OC(=O)NCC(=O)N(c1ccccc1)C(C(=O)Nc1ccc([N+](=O)[O-])cc1)c1ccccc1 (configuration not stated) ?
Completion: label 1
